- Tested on: HOP-92 NSCLC
- assayDetails: NCI tumour cell line growth inhibition, 48 h; in the data active = GI50 below about 0.43 µM; inactive = the rest
Just give me one of these, please: active, inactive

Before answering, review these 5 worked examples.
molecule	targetSystem	qualitativeLabel
COC1(C(=O)N2Cc3nc(Cl)nc(N[C@H](C)c4cc(N)cc(C(F)(F)F)c4)c3C2)CCOCC1	HOP-92 NSCLC	active
CN=C(N)N/N=C(\c1ccccc1)c1ccc(Br)cc1	HOP-92 NSCLC	active
CCN1CCN(c2nc(NCCCNc3ccnc4cc(Cl)ccc34)c3ccccc3n2)CC1	HOP-92 NSCLC	inactive
COc1cccc(/C=C/C(=O)c2cc3c(N)c(C(=O)Nc4ccccc4C)sc3nc2C)c1	HOP-92 NSCLC	inactive
O=[Se]([O-])c1ccccc1.O=[Se]([O-])c1ccccc1.[OH3+].[OH3+].[Pt+2]	HOP-92 NSCLC	inactive

Next item in the queue.
**Q:** # lookup: test call for Clc1ccccc1C(c1ccccc1)(c1ccccc1)n1ccnc1
**A:** inactive

====

- System: OVCAR-3 ovarian
- assayDetails: NCI tumour cell line growth inhibition, 48 h
outcomeMeasure: TGI

Answered examples (5):
molecule	TGI
C1COCCN1.C1COCCN1.N.N.[Cl-].[Pt+2]	> 100 µM
COc1cc2oc(-c3ccc(O)cc3)c(OC3OC(C)C(O)C(O)C3O)c(=O)c2c(O)c1OC (stereo not given)	> 100 µM
CCn1c(-c2nonc2N)nc2c(C#CCN)ncc(OCCCN)c21	> 25 µM
O=c1[nH]cnc2c(C3OC(CO)C(O)C3O)c[nH]c12 (stereo not given)	> 100 µM
COc1cc2c(cc1OCCCCCOc1cc3c(cc1OC)C(=O)N1CCC[C@H]1C(=O)N3)N=C[C@@H]1CCCN1C2=O	0.575 µM

**Q:** Sample CCOC(=O)CC1=Nc2ccccc2SC1 — what was its TGI?
**A:** > 100 µM

**Q:** Would you mind doing CSC1=NC=CCN1C as well?
**A:** > 100 µM

====

Each entry below carries its recorded TGI.
- Test system: HOP-62 NSCLC
- assayDetails: NCI tumour cell line growth inhibition, 48 h
Just the number please, in µM, no unit attached.

Answered examples (5):
compound	recordedValue
COC1(C(=O)N2Cc3nc(Cl)nc(N[C@H](C)c4cc(N)cc(C(F)(F)F)c4)c3C2)CCOCC1	36
CC(C)=CCN1CC(C)C(=O)Nc2cc(Cl)ccc21 (stereo unspecified)	81.4
C=CC(=O)Nc1cccc(-c2nc(SC)nc(Nc3ccccc3OC)c2C#N)c1	6.17
COc1ccc(/C=C/C=C(/C#N)C(N)=S)cc1	94.9
O=C(NNc1nc2c(F)cccc2n2cccc12)c1cnccn1	20

Consider the additional compound presented here.
**Q:** Sample Cc1sc2nc3n(c(=O)c2c1C)N=CN(c1ccccc1)C3 — what was its TGI?
**A:** 65.3

====

Each entry below carries its recorded TGI.
- System: HCC-2998 colon
- assayDetails: NCI tumour cell line growth inhibition, 48 h

Answered examples (6):
compound	recordedValue
c1sc(NC2=NCCO2)c2c1CCCC2	> 100 µM
Cc1c(S(=O)(=O)c2ccccc2)c(N)n(Cc2ccccc2)c1C	> 100 µM
O=C1CC2C=CC(O)C(C1)C2 (configuration not stated)	> 100 µM
Cc1cc(=O)cc2sc3c(C)cccc3nc1-2	> 100 µM
CCOC(=O)c1cc2c([N+](=O)[O-])c(NC(C)=O)ccc2s1	> 100 µM
O=c1c2c3ccccc3[nH]c2c2cccc3c2n1CCC3	> 100 µM

Consider the additional compound presented here.
**Q:** Sample CCOC(=O)c1sc2nc(SC)nc3c2c1N=CN3c1ccc(Br)cc1 — what was its TGI?
**A:** > 100 µM
